molecular target: DRB1*1101; assay: binding to purified HLA
Recorded Metric: IC50 (nM)

Use the examples below as a reference point.
> print(dat)
                        binder  test.value
1  AAAEFVAAYTLHAAA [E4.Y9.H12]          27
2     AAAEFVAAWTLHAAA [E4.H12]          38
3  AAANFVAAYTLHAAA [N4.Y9.H12]          16

[P] AAAHFVAAFTLKAEA [H4.F9.E14]
[Q] AAAHFVAANTLHAAA [H4.N9.H12]
Ask: Please indicate which entry, P or Q , has the lower recorded IC50 value. Field: selected label. Fill in the label of the entry you choose.
Reply: Q

Hey, just so you know, these numbers are from patent US20160114035A1.
